system: Aβ plaques on AD sections; assay: Assay 1 (fluorescence based assay): direct staining of human Alzheimer's disease brain sections; type: binding; set-up: key: − (No); +/− (very weak); + (weak); ++ (good); +++ (strong); details: staining intensity; compound 100 μM, frozen amygdala sections, AD Braak stage V-VI
quantity_name: Staining of Aβ plaques on AD sections

# Staining of Aβ plaques on AD sections (compound: CN(C)c1ccc(-c2cc3ccc(-c4ccc(N5CCC(F)CC5)nc4)nc3s2)cn1 [Example 50] ) is +

# Staining of Aβ plaques on AD sections (compound: c1cncc(-c2ccc3nc(-c4ccc(N5CCCC5)nc4)sc3c2)c1 [Example 19] ) is +++

# Staining of Aβ plaques on AD sections (compound: FCCn1cc(-c2cc3nc(-c4ccc(N5CCCC5)nc4)sc3cn2)cn1 [Example 79] ) is +

# Staining of Aβ plaques on AD sections (compound: Cn1cc(-c2ccc3sc(-c4ccc(N5CC[C@H](F)C5)nc4)nc3c2)cn1 [Example 53] ) is +

# Staining of Aβ plaques on AD sections (compound: c1cncc(-c2ccc3sc(-c4ccc(N5CCCC5)nc4)nc3c2)c1 [Example 39] ) is +

Further cases:
# Staining of Aβ plaques on AD sections (compound: Cn1cc(-c2ccc3sc(-c4ccc(N5CC[C@@H](F)C5)nc4)cc3n2)cn1 [Example 51] ) is +

# Staining of Aβ plaques on AD sections (compound: CNc1ccc(-c2ccc3cc(-c4cccc(OC)c4O)sc3n2)cn1 [Example 3] ) is ++

# Staining of Aβ plaques on AD sections (compound: FCCOc1ccc(Nc2ccc3cc(-c4cccnc4)sc3n2)cc1 [Example 63] ) is ++

# Staining of Aβ plaques on AD sections (compound: c1cncc(-c2cc3ccc(Nc4ccc5c(c4)OCCO5)nc3s2)c1 [Example 64] ) is +++

====

biological target: aSyn aggregates on PD sections (Homo sapiens, UniProt P37840); construct: 20 μm frozen sections from amygdala were purchased from an external provider (Tissue Solutions Ltd.); tissue Tissue Solutions Ltd; host or cells: human PD amygdala, frozen sections, Braak stage V-VI; assay: Assay 1 (fluorescence based assay): direct staining of human Parkinson's disease brain sections; type: binding; parameters: key: − (No); +/− (very weak); + (weak); ++ (good); +++ (strong); conditions: staining intensity; compound 100 μM, frozen amygdala sections, PD Braak stage V-VI
quantity_name: Staining of aSyn aggregates on PD sections

Here's what some known entries look like.
# Staining of aSyn aggregates on PD sections (molecule: Cc1n[nH]c(C)c1-c1ccc2sc(-c3ccc(N4CCCC4)nc3F)nc2n1 [Example 88] ) is +++

# Staining of aSyn aggregates on PD sections (molecule: CNc1ccc(-c2ccc3cc(-c4cccc(OC)c4O)sc3n2)cn1 [Example 3] ) is ++

# Staining of aSyn aggregates on PD sections (molecule: c1ccc(-c2cc3ccc(-c4ccc(N5CCCC5)nc4)nc3s2)nc1 [Example 21] ) is ++

# Staining of aSyn aggregates on PD sections (molecule: FC1CCN(c2ccc(-c3ccc4cc(-c5cccnc5)sc4n3)cn2)CC1 [Example 48] ) is ++

# Staining of aSyn aggregates on PD sections (molecule: FCCn1cc(-c2cc3nc(-c4ccc(N5CCCC5)nc4)sc3cn2)cn1 [Example 79] ) is +

Further cases:
# Staining of aSyn aggregates on PD sections (molecule: CNc1ccc(-c2cc3ccc(Nc4ccc(OCCF)cc4)nc3s2)cc1 [Example 74] ) is +

# Staining of aSyn aggregates on PD sections (molecule: CNc1ccc(-c2ccc3cc(-c4cccnc4)sc3n2)cc1 [Example 14] ) is ++

# Staining of aSyn aggregates on PD sections (molecule: c1cncc(-c2cc3ncc(-c4ccc(N5CCCC5)nc4)cc3s2)c1 [Example 18] ) is +++

# Staining of aSyn aggregates on PD sections (molecule: CNc1ccc(-c2ccc3cc(-c4ccc(OC)c(O)c4)sc3n2)cc1 [Example 30] ) is ++
